Each recorded value in this set is attributed to patent US20240270826A1.

- Target entity: T1, SARS-CoV-2 S on CHO-S cells (SARS-CoV-2, UniProt P0DTC2 14-1273)
- T1 construct: whole, on cells
- Assay: flow cytometry, CHO-S cells
Property label: pEC50
Numbers only, as −log10 of the molar value.

>>> measured_value("NRCoV2-SR16 VHH-Fc (Fc fusion, bivalent VHH-Fc) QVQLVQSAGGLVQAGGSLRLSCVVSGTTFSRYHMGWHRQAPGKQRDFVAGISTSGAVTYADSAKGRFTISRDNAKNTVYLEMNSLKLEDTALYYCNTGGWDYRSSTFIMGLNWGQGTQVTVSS")
8.85

Now turn to the next binder.
Field request: pEC50 | item: NRCoV2-MRed19 VHH-Fc (Fc fusion, bivalent VHH-Fc) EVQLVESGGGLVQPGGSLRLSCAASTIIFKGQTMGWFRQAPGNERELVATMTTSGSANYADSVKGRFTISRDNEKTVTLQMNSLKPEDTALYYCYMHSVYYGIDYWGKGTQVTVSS 8.89
